assayed target: T1, Glucagon receptor (rat), P30082
T1 chain: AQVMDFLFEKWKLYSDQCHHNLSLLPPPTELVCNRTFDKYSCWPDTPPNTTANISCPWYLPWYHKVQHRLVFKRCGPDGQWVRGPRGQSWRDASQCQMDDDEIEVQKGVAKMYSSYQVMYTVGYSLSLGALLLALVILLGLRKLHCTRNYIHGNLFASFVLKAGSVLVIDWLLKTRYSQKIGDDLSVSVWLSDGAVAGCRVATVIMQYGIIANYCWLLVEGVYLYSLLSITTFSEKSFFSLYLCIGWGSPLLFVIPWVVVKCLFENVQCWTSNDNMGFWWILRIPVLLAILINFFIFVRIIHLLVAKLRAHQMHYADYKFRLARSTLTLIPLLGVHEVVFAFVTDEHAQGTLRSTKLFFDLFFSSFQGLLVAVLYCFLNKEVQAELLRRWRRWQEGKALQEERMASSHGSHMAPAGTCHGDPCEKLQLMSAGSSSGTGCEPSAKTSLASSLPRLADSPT
test protocol: competition
measurement parameters: modification not given
readout kind: pIC50
Reminder that pIC50 is minus the log10 of a molar concentration.

# example entries with known answers
HSQGTFTSDYSKYLEGQAAKEFIAWLVKGR [G5]: 6.61
HSQGTFTSDYAKYLDARRACEFIAWLVKGRG [G71]: 7.59
HSQGTFTSDYSKYLDSRRAQDFVQWLVKGR [G1]: 8.18

Field pIC50 (entry HSQGTFTSDYAKYLDARRAKEFIAWLVKGR [G87] ) reads 6.21

HSQGTFTSDYARYLDAAKAKEFIAWLVKGRG [G61] yielded pIC50 of 6.63

Per the record, HSQGTFTSDYAKYLDARRAKEFIAWLVKGRC [G77] has pIC50 of 7.21
